B1: Gamma-crystallin S, residues 96 to 176; numbered along this chain, P22914 (parent)
chain: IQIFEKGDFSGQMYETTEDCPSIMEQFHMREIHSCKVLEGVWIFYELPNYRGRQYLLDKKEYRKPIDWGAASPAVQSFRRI

Variants of: B1
METHOD_NOTES: abundance fitness (aPCA) (normalised: wild type 0, dead -1); higher = more abundant; growth selection in yeast, the domain comes from the species named
MEASUREMENT_SETUP: Homo sapiens
RECORDED_ENDPOINT: abundance fitness

>>> endpoint_result("W42S")
-0.901
>>> endpoint_result("S34G")
0.06
>>> endpoint_result("Y50E")
-0.559
>>> endpoint_result("H33G")
0.012
>>> endpoint_result("Q26W")
0
>>> endpoint_result("Q2A")
-0.075
>>> endpoint_result("G7C")
-0.367
>>> endpoint_result("L47N")
-0.203
>>> endpoint_result("I66K")
-0.432
>>> endpoint_result("Q12S")
0.023
>>> endpoint_result("K60M")
0.078
>>> endpoint_result("R79W")
-0.419
>>> endpoint_result("M29T")
0.109
>>> endpoint_result("E39C")
-0.039
>>> endpoint_result("H33K")
-0.12
>>> endpoint_result("R51S")
0.044
>>> endpoint_result("H28T")
0.036
>>> endpoint_result("L47R")
0.011
>>> endpoint_result("G7I")
0.034
>>> endpoint_result("C20V")
-0.087
>>> endpoint_result("Q54T")
0.044
>>> endpoint_result("A71D")
-0.308
>>> endpoint_result("H33D")
0.077
>>> endpoint_result("H33Y")
0.02
>>> endpoint_result("R51I")
-0.04
>>> endpoint_result("L38P")
0.1
>>> endpoint_result("S22L")
-0.022
>>> endpoint_result("T17K")
0.074
>>> endpoint_result("R80G")
0.028
>>> endpoint_result("E46H")
-0.047
>>> endpoint_result("C20D")
-0.754
>>> endpoint_result("C20S")
-0.054
>>> endpoint_result("P48Y")
-0.23
>>> endpoint_result("F9N")
0.068
>>> endpoint_result("G11R")
-0.135
>>> endpoint_result("P21G")
0.004
>>> endpoint_result("R51W")
-0.138
>>> endpoint_result("T16L")
0.049
>>> endpoint_result("F78R")
-1.11
>>> endpoint_result("M29G")
0.053
>>> endpoint_result("I66R")
0.03
>>> endpoint_result("G7Q")
-0.099
>>> endpoint_result("I43G")
0.028
>>> endpoint_result("F44R")
-1.02
>>> endpoint_result("R80Q")
-0.491
>>> endpoint_result("S72N")
-0.204
>>> endpoint_result("E5M")
0.028
>>> endpoint_result("E39T")
-0.012
>>> endpoint_result("V75E")
-0.821
>>> endpoint_result("E5F")
0.057
>>> endpoint_result("E31S")
-0.034
>>> endpoint_result("D58C")
0.054
>>> endpoint_result("Q54Y")
-0.144
>>> endpoint_result("M24E")
-0.052
>>> endpoint_result("E31G")
0.015
>>> endpoint_result("V75F")
0.146
>>> endpoint_result("Q12R")
0.025
>>> endpoint_result("K59P")
-0.229
>>> endpoint_result("G40Y")
-0.137
>>> endpoint_result("I32K")
-0.755
>>> endpoint_result("R53D")
0.048
>>> endpoint_result("R53A")
-0.039
>>> endpoint_result("F27N")
-0.141
>>> endpoint_result("K60S")
0.005
>>> endpoint_result("I81S")
-0.043
>>> endpoint_result("N49P")
-0.591
>>> endpoint_result("R51G")
0.062
>>> endpoint_result("N49R")
-0.07
>>> endpoint_result("G69Q")
-0.166
>>> endpoint_result("P48E")
-0.068
>>> endpoint_result("D19H")
0.143
>>> endpoint_result("I3P")
-1.2
>>> endpoint_result("T17R")
-0.012
>>> endpoint_result("G11C")
0.066
>>> endpoint_result("E31M")
-0.039
>>> endpoint_result("I66G")
-0.074
>>> endpoint_result("H28K")
0.07
>>> endpoint_result("E31D")
0.138
>>> endpoint_result("H33T")
0.06
>>> endpoint_result("Q2R")
0.027
>>> endpoint_result("Y50S")
-0.705
>>> endpoint_result("P21W")
0.037
>>> endpoint_result("I23V")
0.004
>>> endpoint_result("Q12L")
-0.014
>>> endpoint_result("Q26R")
0.009
>>> endpoint_result("Q2V")
-0.041
>>> endpoint_result("Q54H")
0.035
>>> endpoint_result("Y50C")
-0.047
>>> endpoint_result("K36F")
0.1
>>> endpoint_result("G69V")
-0.05
>>> endpoint_result("K64G")
0.031
